Assay: Mouse pharmacokinetics study
Conditions: CD-1, mouse, plasma, ip, 10 mg/kg
readout.name: Cmax (ng/mL)
Answers are plain numbers, in ng/mL.

Cmax in this record for CC1(C)CN(C(=O)c2cn[nH]c2)Cc2c(C(=O)Nc3ccc(F)cc3)nn(Cc3ccc(C(F)(F)F)cc3)c21 : 2320

* * *

Target: IDH1 (Homo sapiens)
Test: IC50 in two trials and mean (Example 1, assay not described)
Assay type: biochemical
Settings: Trial 1; read-out: IC50, Trial 1
readout.name: log10 of IC50 (log10 of the value in nM)
# log10 transformed; quantity=IC50; unit=nM

Some molecules with recorded log10 of IC50:
- molecule: "Cc1c[nH]c(C(=O)N2Cc3c(C(=O)Nc4cccc(C(C)O)c4)nn(Cc4ccc(F)cc4)c3C(C)(C)C2)c1 (stereo not drawn) [IAP-1-40]"
  log10 of IC50: 2.72
- molecule: "CC1(C)CN(C(=O)c2cccs2)Cc2c(C(=O)Nc3ncco3)nn(Cc3ccc(F)cc3)c21 [FSM-2-114]"
  log10 of IC50: 3.14
- molecule: "CC1(C)CN(C(=O)c2cccs2)Cc2c(C(=O)Nc3cccc(C(N)=O)c3)nn(Cc3ccc(F)cc3)c21 [FSM-2-96]"
  log10 of IC50: 2.42
- molecule: "Cn1cccc1C(=O)N1Cc2c(C(=O)Nc3ccccc3)nn(Cc3ccc(F)cc3)c2C(C)(C)C1 [VV-1-19]"
  log10 of IC50: 1.86
- molecule: "CC1(C)CN(C(=O)c2ccc[nH]2)Cc2c(C(=O)Nc3ncco3)nn(Cc3ccc(F)cc3)c21 [FSM-2-113]"
  log10 of IC50: 3.10
- molecule: "CC1(C)CN(C(=O)c2cccs2)Cc2c(C(=O)Nc3cccc(C(=O)NC4CCCCC4)c3)nn(Cc3ccc(F)cc3)c21 [IAP-1-37]"
  log10 of IC50: 1.28
- molecule: "CC(O)c1cccc(NC(=O)c2nn(Cc3ccc(F)cc3)c3c2CN(C(=O)c2cccn2C)CC3(C)C)c1 (stereo not drawn) [IAP-1-39]"
  log10 of IC50: 1.65
- molecule: "CC1(C)CN(C(=O)c2ccc[nH]2)Cc2c(C(=O)Nc3cccc(C(=O)NC4CCCC4)c3)nn(Cc3ccc(F)cc3)c21 [IAP-1-34]"
  log10 of IC50: 1.94
- molecule: "CC1(C)CN(C(=O)c2ccc[nH]2)Cc2c(C(=O)Nc3cccc(C(N)=O)c3)nn(Cc3ccc(F)cc3)c21 [FSM-2-95]"
  log10 of IC50: 2.49
- molecule: "CC1(C)CN(C(=O)c2cccs2)Cc2c(C(=O)Nc3cccc(C(=O)O)c3)nn(Cc3ccc(F)cc3)c21 [FSM-2-98]"
  log10 of IC50: 3.80

Batch of 2 molecules: report log10 of IC50 for each.
1. CC1(C)CN(C(=O)c2cccs2)Cc2c(C(=O)Nc3cccc(C(=O)NC4CCCC4)c3)nn(Cc3ccc(F)cc3)c21 [IAP-1-35]
2. CC1(C)CN(C(=O)c2ccc[nH]2)Cc2c(C(=O)Nc3cccc(C(=O)NC4CC4)c3)nn(Cc3ccc(F)cc3)c21 [IAP-1-23]

1: 1.84; 2: 3.01

* * *

Target: IDH1 (Homo sapiens, UniProt O75874)
Sequence (O75874 whole entry): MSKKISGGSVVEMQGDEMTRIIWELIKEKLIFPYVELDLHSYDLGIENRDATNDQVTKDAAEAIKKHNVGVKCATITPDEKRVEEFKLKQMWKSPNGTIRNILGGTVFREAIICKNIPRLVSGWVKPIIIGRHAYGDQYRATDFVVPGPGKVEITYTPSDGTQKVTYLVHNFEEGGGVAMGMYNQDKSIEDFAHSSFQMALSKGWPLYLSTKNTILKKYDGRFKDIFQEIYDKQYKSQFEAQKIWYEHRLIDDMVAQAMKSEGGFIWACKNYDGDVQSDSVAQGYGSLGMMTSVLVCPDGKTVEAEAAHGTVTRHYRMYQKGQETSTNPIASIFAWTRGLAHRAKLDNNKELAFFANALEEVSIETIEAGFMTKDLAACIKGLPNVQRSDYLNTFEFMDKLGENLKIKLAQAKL
Experiment: Two-step binding kinetics (Example 1, assay not described)
Conditions: 2nd step; read-out: KiAPP* (affinity for 2nd step)
Assignment: determine reported pKi for the given molecules.
Numbers only, as −log10 of the molar value.

- molecule: "C=CC(=O)Nc1cccc(NC(=O)c2nn(Cc3ccc(C(F)(F)F)cc3)c3c2CN(C(=O)c2cn[nH]c2)CC3(C)C)c1 [FSM-05-157]"
  observed: 7.19

With those in mind, consider the next molecule.
// pKi lookup, molecule = CC1(C)CN(C(=O)c2cn[nH]c2)Cc2c(C(=O)Nc3cccc(NC(=O)CCCl)c3)nn(Cc3ccc(C(F)(F)F)cc3)c21 [FSM-05-141] , result: 7.09

* * *

Target: IDH1 (Homo sapiens, UniProt O75874)
Assay: IC50 in two trials and mean (Example 1, assay not described)
Format: biochemical
Details: mean of the trials; read-out: Mean IC50
readout.name: IC50
The answer should read as a number with its unit following.

Consider the reported IC50 for these molecules:
- chemical.string: "CC1(C)CN(C(=O)c2cccs2)Cc2c(C(=O)Nc3nccs3)nn(Cc3ccc(F)cc3)c21"
  IC50: "8110 nM"
- chemical.string: "CC1(C)CN(C(=O)c2cccs2)Cc2c(C(=O)Nc3cccc(C(=O)NC4CCCCC4)c3)nn(Cc3ccc(F)cc3)c21"
  IC50: "19 nM"
- chemical.string: "CC1(C)CN(C(=O)c2cccs2)Cc2c(C(=O)Nc3cccc(C(N)=O)c3)nn(Cc3ccc(F)cc3)c21"
  IC50: "259 nM"

Consider the additional molecule presented here.
The molecule listed as Cn1cccc1C(=O)N1Cc2c(C(=O)Nc3ccccc3)nn(Cc3ccc(F)cc3)c2C(C)(C)C1 shows IC50 equal to 73 nM

* * *

Target: IDH1 (Homo sapiens)
Assay: IC50 dose-response curve fits (Example 1, assay not described)
Assay type: biochemical
Settings: curve fit
Please respond with true (1) when measured IC50 is strictly beneath 3 nM, and with false (0) in all other cases.

- compound: "CC1(C)CN(C(=O)c2cn[nH]c2)Cc2c(C(=O)Nc3cccc(F)c3)nn(Cc3ccc(C(F)(F)F)cc3)c21"
  group.label: "false (0)"
- compound: "COc1ccc(NC(=O)c2nn(Cc3ccc(C(F)(F)F)cc3)c3c2CN(C(=O)c2cccs2)CC3(C)C)cc1"
  group.label: "true (1)"
- compound: "CC(O)c1cccc(NC(=O)c2nn(Cc3ccc(C(F)(F)F)cc3)c3c2CN(C(=O)c2cn[nH]c2)CC3(C)C)c1 (stereo not drawn)"
  group.label: "false (0)"

Field: below-cutoff. Rule: recorded IC50 strictly less than 3 nM. Subject: COc1cccc(NC(=O)c2nn(Cc3ccc(C(F)(F)F)cc3)c3c2CN(C(=O)c2cccs2)CC3(C)C)c1
true (1)

hey, is IC50 for COc1ccc(NC(=O)c2nn(Cc3ccc(C(F)(F)F)cc3)c3c2CN(C(=O)c2ccc[nH]2)CC3(C)C)cc1 lower than 3 nM or not?
false (0)

Strictly below 3 nM in IC50? COc1cccc(NC(=O)c2nn(Cc3ccc(C(F)(F)F)cc3)c3c2CN(C(=O)c2ccc[nH]2)CC3(C)C)c1
true (1)

* * *

Target: IDH1 (Homo sapiens, UniProt O75874)
Test: IC50 in two trials and mean (Example 1, assay not described)
Assay type: biochemical
Conditions: Trial 2; read-out: IC50, Trial 2
pIC50: −log10 of the molar value.
Parameter class (string): assigned from measured pIC50. Ranges: bin 0: < 6; bin 1: ≥ 6 and < 7; bin 2: ≥ 7

Study these solved cases before continuing.
- compound: "CC1(C)CN(C(=O)c2cccs2)Cc2c(C(=O)Nc3cccc(C(=O)NC4CCCCC4)c3)nn(Cc3ccc(F)cc3)c21 [IAP-1-37]"
  group.label: "bin 2"
- compound: "CC1(C)CN(C(=O)c2ccc[nH]2)Cc2c(C(=O)Nc3cccc(C(N)=O)c3)nn(Cc3ccc(F)cc3)c21 [FSM-2-95]"
  group.label: "bin 1"
- compound: "CC(O)c1cccc(NC(=O)c2nn(Cc3ccc(F)cc3)c3c2CN(C(=O)c2cccn2C)CC3(C)C)c1 (stereo not drawn) [IAP-1-39]"
  group.label: "bin 2"
- compound: "CC1(C)CN(C(=O)c2ccc[nH]2)Cc2c(C(=O)Nc3cccc(C(=O)O)c3)nn(Cc3ccc(F)cc3)c21 [FSM-2-97]"
  group.label: "bin 0"
- compound: "CC1(C)CN(C(=O)c2cccs2)Cc2c(C(=O)Nc3nccs3)nn(Cc3ccc(F)cc3)c21 [FSM-2-116]"
  group.label: "bin 0"

Tag the class for Cc1c[nH]c(C(=O)N2Cc3c(C(=O)Nc4cccc(C(C)O)c4)nn(Cc4ccc(F)cc4)c3C(C)(C)C2)c1 (stereo not drawn) [IAP-1-40]
bin 1

Which pIC50 band matches CC1(C)CN(C(=O)c2ccc[nH]2)Cc2c(C(=O)Nc3nccs3)nn(Cc3ccc(F)cc3)c21 [FSM-2-115] ?
bin 0

Could you tell me which band CC1(C)CN(C(=O)c2cccs2)Cc2c(C(=O)Nc3cccc(C(N)=O)c3)nn(Cc3ccc(F)cc3)c21 [FSM-2-96] belongs to?
bin 1

Hi there! Could you help me figure out the category for CC1(C)CN(C(=O)c2cccs2)Cc2c(C(=O)Nc3cccc(C(=O)O)c3)nn(Cc3ccc(F)cc3)c21 [FSM-2-98] please?
bin 0

* * *

Biological target: IDH1 (Homo sapiens, UniProt O75874)
Assay: IC50 in two trials and mean (Example 1, assay not described)
Assay type: biochemical
Conditions: mean of the trials; read-out: Mean IC50
readout.name: pIC50
Numbers only, as −log10 of the molar value.

Look over these answered cases.
- compound: "CC1(C)CN(C(=O)c2ccc[nH]2)Cc2c(C(=O)Nc3cccc(C(N)=O)c3)nn(Cc3ccc(F)cc3)c21"
  readout.name: "pIC50"
  observed: 6.52
- compound: "CC(O)c1cccc(NC(=O)c2nn(Cc3ccc(F)cc3)c3c2CN(C(=O)c2cccn2C)CC3(C)C)c1 (stereo not shown)"
  readout.name: "pIC50"
  observed: 7.34

The recorded pIC50 for CC1(C)CN(C(=O)c2ccc[nH]2)Cc2c(C(=O)Nc3cccc(C(=O)NC4CC4)c3)nn(Cc3ccc(F)cc3)c21 is 6.00
